Test system: Candida albicans
Procedure Text: MFC determination
Format: cell-based
Assay Context: Fluconazole-susceptible C. albicans n = 13; kills 90% of strains
Attribute Measured: MFC90 (mg/L)
// note: answer is a bare numeric in mg/L

# MFC90 (compound: C[C@@H]1[C@H](O)[C@@H](C)/C=C/C=C/C=C/C=C/C=C/C=C/C=C/[C@H](O[C@@H]2O[C@H](C)[C@@H](O)[C@H](N)[C@@H]2O)C[C@@H]2O[C@](O)(C[C@@H](O)[C@H](O)CC[C@@H](O)C[C@@H](O)C[C@@H](O)CC(=O)O[C@H]1C)C[C@H](O)[C@H]2C ) is 1

Others:
Note to self: MFC90 recorded for C[C@@H]1[C@H](O)[C@@H](C)/C=C/C=C/C=C/C=C/C=C/C=C/C=C/[C@H](O[C@@H]2O[C@H](C)[C@@H](O)[C@H](N)[C@@H]2O)C[C@@H]2O[C@](O)(C[C@@H](O)C[C@@H](O)[C@H](O)CC[C@@H](O)C[C@@H](O)CC(=O)O[C@H]1C)C[C@H](O)[C@H]2C(=O)O was 1

# compound CC[C@H](C)C[C@H](C)CCCCCCCCC(=O)N[C@H]1C[C@@H](O)[C@@H](NCCN)NC(=O)[C@@H]2[C@@H](O)CCN2C(=O)[C@H]([C@H](O)CCN)NC(=O)[C@H]([C@H](O)[C@@H](O)c2ccc(O)cc2)NC(=O)[C@@H]2C[C@@H](O)CN2C(=O)[C@H]([C@@H](C)O)NC1=O ; its MFC90 = 2

---

Test system: all Aspergillus strains tested
Procedure Text: MFC determination, summary
Assay type: cell-based
Assay Context: kills 50% of strains
Attribute Measured: MFC50

Field: example entries. Status: answers known.
Measured MFC50 of C[C@@H]1[C@H](O)[C@@H](C)/C=C/C=C/C=C/C=C/C=C/C=C/C=C/[C@H](O[C@@H]2O[C@H](C)[C@@H](O)[C@H](N)[C@@H]2O)C[C@@H]2O[C@](O)(C[C@@H](O)C[C@@H](O)[C@H](O)CC[C@@H](O)C[C@@H](O)CC(=O)O[C@H]1C)C[C@H](O)[C@H]2C(=O)O : > 8 µg/mL

Item: OC(Cn1cncn1)(Cn1cncn1)c1ccc(F)cc1F | MFC50: > 64 µg/mL

Summary for this compound, C[C@@H]1[C@H](O)[C@@H](C)/C=C/C=C/C=C/C=C/C=C/C=C/C=C/[C@H](O[C@@H]2O[C@H](C)[C@@H](O)[C@H](N)[C@@H]2O)C[C@@H]2O[C@](O)(C[C@@H](O)[C@H](O)CC[C@@H](O)C[C@@H](O)C[C@@H](O)CC(=O)O[C@H]1C)C[C@H](O)[C@H]2C : MFC50 is 4 µg/mL

MFC50 in this record for C[C@@H](c1ncncc1F)[C@](O)(Cn1cncn1)c1ccc(F)cc1F : > 8 µg/mL

Consider the additional compound presented here.
Measured MFC50 of CC[C@H](C)C[C@H](C)CCCCCCCCC(=O)N[C@H]1C[C@@H](O)[C@@H](NCCN)NC(=O)[C@@H]2[C@@H](O)CCN2C(=O)[C@H]([C@H](O)CCN)NC(=O)[C@H]([C@H](O)[C@@H](O)c2ccc(O)cc2)NC(=O)[C@@H]2C[C@@H](O)CN2C(=O)[C@H]([C@@H](C)O)NC1=O : > 32 µg/mL
